Tested on: Escherichia coli
Experiment: Antibacterial activity against Escherichia coli MTCC 739 assessed as reduction in bacterial growth incubated for 24 hrs by agar well diffusion method
Format: functional
Details: MTCC 739, 24 h
Recorded MIC by entry

Examples with answers:
Smiles String: COc1ccc(-c2nc3sccn3c2C(=O)c2cn(-c3ccc(F)cc3)nn2)cc1
Assay Target: Escherichia coli
Recorded Endpoint: MIC
Readout Value: > 125 µg/mL
//
Smiles String: O=C(c1cn(-c2ccc(F)cc2)nn1)c1c(-c2ccccc2)nc2sccn12
Assay Target: Escherichia coli
Recorded Endpoint: MIC
Readout Value: > 125 µg/mL
//
Smiles String: COc1ccc(-c2nc3sccn3c2C(=O)c2cn(-c3ccc(F)cc3Br)nn2)cc1
Assay Target: Escherichia coli
Recorded Endpoint: MIC
Readout Value: > 125 µg/mL
//
Smiles String: COc1ccc(-n2cc(C(=O)c3c(-c4ccc(Cl)cc4)nc4sccn34)nn2)cc1
Assay Target: Escherichia coli
Recorded Endpoint: MIC
Readout Value: > 125 µg/mL
//
Smiles String: COc1ccc(-c2nc3sccn3c2C(=O)c2cn(-c3cc(OC)c(OC)c(OC)c3)nn2)cc1
Assay Target: Escherichia coli
Recorded Endpoint: MIC
Readout Value: > 125 µg/mL
//
Smiles String: O=C(c1cn(-c2ccc(F)cc2Br)nn1)c1c(-c2ccccc2)nc2sccn12
Assay Target: Escherichia coli
Recorded Endpoint: MIC
Readout Value: 1.9 µg/mL
//
Smiles String: O=C(c1cn(-c2ccc(Br)cc2)nn1)c1c(-c2ccccc2)nc2sccn12
Assay Target: Escherichia coli
Recorded Endpoint: MIC
Readout Value: 3.9 µg/mL
//
Smiles String: O=C(c1cn(-c2ccc(F)cc2)nn1)c1c(-c2ccc(Cl)cc2)nc2sccn12
Assay Target: Escherichia coli
Recorded Endpoint: MIC
Readout Value: > 125 µg/mL
//
Smiles String: COc1ccc(-c2nc3sccn3c2C(=O)c2cn(-c3ccc(C(F)(F)F)cc3)nn2)cc1
Assay Target: Escherichia coli
Recorded Endpoint: MIC
Readout Value: > 125 µg/mL
//
Smiles String: O=C(c1cn(-c2ccc(Cl)cc2)nn1)c1c(-c2ccccc2)nc2sccn12
Assay Target: Escherichia coli
Recorded Endpoint: MIC
Readout Value: 1.9 µg/mL

The reported value for COc1cc(-n2cc(C(=O)c3c(-c4ccc(Cl)cc4)nc4sccn34)nn2)cc(OC)c1OC in terms of MIC is > 125 µg/mL

The reported value for O=C(c1cn(-c2ccc(F)cc2Br)nn1)c1c(-c2ccc(Cl)cc2)nc2sccn12 in terms of MIC is > 125 µg/mL

The reported value for O=C(O)c1cn(C2CC2)c2cc(N3CCNCC3)c(F)cc2c1=O in terms of MIC is 0.9 µg/mL

The reported value for O=C(c1cn(-c2ccc(C(F)(F)F)cc2)nn1)c1c(-c2ccccc2)nc2sccn12 in terms of MIC is > 125 µg/mL

The reported value for COc1ccc(-c2nc3sccn3c2C(=O)c2cn(-c3ccc(Br)cc3)nn2)cc1 in terms of MIC is > 125 µg/mL

The reported value for O=C(c1cn(-c2ccc(C(F)(F)F)cc2)nn1)c1c(-c2ccc(Cl)cc2)nc2sccn12 in terms of MIC is > 125 µg/mL

The reported value for COc1ccc(-c2nc3sccn3c2C(=O)c2cn(-c3ccc(OC)cc3)nn2)cc1 in terms of MIC is > 125 µg/mL

The reported value for O=C(c1cn(-c2ccc(Cl)cc2)nn1)c1c(-c2ccc(Cl)cc2)nc2sccn12 in terms of MIC is 3.9 µg/mL

The reported value for COc1ccc(-n2cc(C(=O)c3c(-c4ccccc4)nc4sccn34)nn2)cc1 in terms of MIC is > 125 µg/mL

The reported value for O=C(c1cn(-c2ccc(Br)cc2)nn1)c1c(-c2ccc(Cl)cc2)nc2sccn12 in terms of MIC is 3.9 µg/mL

The reported value for COc1ccc(-c2nc3sccn3c2C(=O)c2cn(-c3ccc(Cl)cc3)nn2)cc1 in terms of MIC is > 125 µg/mL

The reported value for COc1cc(-n2cc(C(=O)c3c(-c4ccccc4)nc4sccn34)nn2)cc(OC)c1OC in terms of MIC is > 125 µg/mL
